Examples of molecules with documented % inhibition follow.
# System: Trypanosoma brucei
# ASSAY METHOD TEXT: DNDI: Inhibition of Human African Trypanosomiasis, SBRI 427, in vitro at 2 ug.mL-1
# Type: functional
The whole screen tested about 4,400 compounds, of which about 390 (8.9%) showed an effect of 50% or more. The sample as a whole holds a higher share of strong results than the screen did.
Unit % implied. Number only.

In: Let me know recorded % inhibition for "O/N=C(/c1cccnc1Oc1ccc(F)c(Cl)c1)N1CCN(c2ccc(F)cc2)CC1" , thanks.
Out: -10

In: Consider the molecule "CCCN(CC1CC1)/C(=N\O)c1ccc(C)nc1Oc1cccc2cnccc12" . State its measured % inhibition.
Out: 23

In: Given CCOC(=O)C1CCCCN1Cc1coc(-c2ccccc2Br)n1 (stereo unspecified) , respond with its % inhibition.
Out: -3

In: Identify measured % inhibition corresponding to COc1cc2c(cc1OC)C(C(C)C)N(Cc1coc(-c3ccc(F)cc3)n1)CC2 (stereo unspecified)
Out: 5

In: Look up and state reported % inhibition for "COc1ccccc1CNCc1coc(-c2ccc(Br)cc2)n1"
Out: 3

In: Please give the documented % inhibition of "CCOc1ccc(-c2nc(CN3CCN(c4cccc(Cl)c4)CC3)co2)cc1"
Out: -2

In: Tell us which % inhibition value is on record for "COc1ccccc1CN/C(=N\O)c1ccc(C)nc1OCc1cccc(F)c1"
Out: -8

In: For the molecule "Cc1nccn1/C(=N\O)c1cccnc1Oc1ccccc1" , report % inhibition.
Out: 10

Origin of values: ChEMBL document CHEMBL1857833
